Target desc: human vasopressin V2 receptor subtype (Homo sapiens)
Construct: host or cells: CHO cells (pZeoSV vector)
Sequence (P30518 whole entry): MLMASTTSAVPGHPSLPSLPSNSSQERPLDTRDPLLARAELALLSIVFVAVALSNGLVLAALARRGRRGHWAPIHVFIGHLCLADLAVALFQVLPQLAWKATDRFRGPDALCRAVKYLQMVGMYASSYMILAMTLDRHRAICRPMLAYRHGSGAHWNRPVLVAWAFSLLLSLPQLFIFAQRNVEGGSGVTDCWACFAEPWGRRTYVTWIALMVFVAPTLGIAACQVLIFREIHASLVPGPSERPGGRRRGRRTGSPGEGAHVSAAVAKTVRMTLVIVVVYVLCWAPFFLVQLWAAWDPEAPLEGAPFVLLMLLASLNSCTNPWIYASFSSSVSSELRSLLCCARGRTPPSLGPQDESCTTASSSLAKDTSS
Experiment summary: Vasopressin binding in Chinese Hamster Ovary cell membranes expressing human vasopressin V2 subtype receptors
Protocol conditions: 100 nM, CHO cell membranes, [3H]arginine vasopressin, values without parentheses
Decide by inhibition at 0.1 µM: equal to or exceeding 10% means met, less means not met.

- Molecule: "COc1ccccc1-c1ccc(C(=O)N2Cc3ccc(C(=O)N(C)C4CCN(C)C4)n3Cc3ccccc32)cc1C (stereo not shown) [Example 185]"
  Target desc: "human vasopressin V2 receptor subtype (Homo sapiens)"
  Assigned category: "met"
- Molecule: "COc1cccc(-c2cc(OC)c(C(=O)N3Cc4ccc(C(=O)N(C)C5CCN(C)CC5)n4Cc4ccccc43)cc2Cl)c1 [Example 181]"
  Target desc: "human vasopressin V2 receptor subtype (Homo sapiens)"
  Assigned category: "met"
- Molecule: "COc1cc(-c2ccccc2C)c(Cl)cc1C(=O)N1Cc2ccc(C(=O)N(C)C3CCN(C)CC3)n2Cc2ccccc21 [Example 180]"
  Target desc: "human vasopressin V2 receptor subtype (Homo sapiens)"
  Assigned category: "met"
- Molecule: "COc1ccccc1-c1ccc(C(=O)N2Cc3ccc(C(=O)NCCCn4ccnc4)n3Cc3ccccc32)cc1C [Example 123]"
  Target desc: "human vasopressin V2 receptor subtype (Homo sapiens)"
  Assigned category: "met"
- Molecule: "COc1cccc(-c2cc(OC)c(C(=O)N3Cc4ccc(C(=O)N5CCC(N6CCCC6)CC5)n4Cc4ccccc43)cc2Cl)c1 [Example 143]"
  Target desc: "human vasopressin V2 receptor subtype (Homo sapiens)"
  Assigned category: "not met"
- Molecule: "COc1cc(C(=O)N2Cc3ccc(C(=O)N(C)CCCN(C)C)n3Cc3ccccc32)ccc1-c1ccccc1C [Example 105]"
  Target desc: "human vasopressin V2 receptor subtype (Homo sapiens)"
  Assigned category: "met"
- Molecule: "Cc1cc(C(=O)N2Cc3cccn3Cc3ccccc32)cc(C)c1-n1c(C)ccc1C [Example 30]"
  Target desc: "human vasopressin V2 receptor subtype (Homo sapiens)"
  Assigned category: "not met"

* * *

Target desc: human vasopressin V1a receptor subtype (Homo sapiens, UniProt P37288)
Construct: host or cells: CHO cells (pZeoSV vector for the Thibonnier line)
Sequence (P37288 whole entry): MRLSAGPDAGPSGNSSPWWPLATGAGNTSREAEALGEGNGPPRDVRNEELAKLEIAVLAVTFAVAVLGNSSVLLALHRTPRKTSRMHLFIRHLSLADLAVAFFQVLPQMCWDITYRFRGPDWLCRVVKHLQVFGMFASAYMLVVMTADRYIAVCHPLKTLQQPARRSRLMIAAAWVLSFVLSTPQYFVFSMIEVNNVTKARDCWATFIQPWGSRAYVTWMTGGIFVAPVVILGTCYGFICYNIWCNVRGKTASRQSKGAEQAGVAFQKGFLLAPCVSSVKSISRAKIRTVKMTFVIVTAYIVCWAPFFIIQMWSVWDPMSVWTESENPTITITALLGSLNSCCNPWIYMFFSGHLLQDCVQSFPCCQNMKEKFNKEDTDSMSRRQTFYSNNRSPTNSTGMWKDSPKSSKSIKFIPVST
Experiment summary: Vasopressin binding in Chinese Hamster Ovary cell membranes expressing human vasopressin V1a subtype receptors
Protocol conditions: 100 nM, CHO cell membranes, [3H]Manning ligand, values without parentheses
Parameter: V1a % inhibition @ 100 nM. Scope: all listed entries.

- Compound: "COc1cc2c(cc1OC)N(C(=O)c1ccc(-c3ccccc3C(F)(F)F)c(C)c1)Cc1ccc(C(=O)N3CCC(=O)CC3)n1C2 [Example 14]"
  V1a % inhibition @ 100 nM: "−16%"
- Compound: "COc1cc(C(=O)N2Cc3ccc(C(=O)N4CCC[C@H]4CN4CCCC4)n3Cc3ccccc32)ccc1-c1ccccc1Cl [Example 33]"
  V1a % inhibition @ 100 nM: "68%"
- Compound: "COc1ccccc1-c1ccc(C(=O)N2Cc3ccc(C(=O)N4CCC[C@H]4CN4CCCC4)n3Cc3ccccc32)cc1 [Example 265]"
  V1a % inhibition @ 100 nM: "31%"
- Compound: "CN(C)[C@@H]1CCN(C(=O)c2ccc3n2Cc2ccccc2N(C(=O)c2ccc(-c4cccc5ccccc45)cc2Cl)C3)C1 [Example 277]"
  V1a % inhibition @ 100 nM: "8%"
- Compound: "COc1cc(C(=O)N2Cc3ccc(C(=O)N4CC[C@@H](N(C)C)C4)n3Cc3ccccc32)ccc1-n1c(C)ccc1C [Example 322]"
  V1a % inhibition @ 100 nM: "12%"
- Compound: "COc1cccc(-c2ccc(C(=O)N3Cc4ccc(C(=O)N5CCN(CCN(C)C)CC5)n4Cc4ccccc43)cc2C)c1 [Example 199]"
  V1a % inhibition @ 100 nM: "23%"
- Compound: "COc1cccc(-c2cc(OC)c(C(=O)N3Cc4ccc(C(=O)N5CCN(CCN6CCOCC6)CC5)n4Cc4ccccc43)cc2Cl)c1 [Example 212]"
  V1a % inhibition @ 100 nM: "35%"
- Compound: "COc1cccc(-c2ccc(C(=O)N3Cc4ccc(C(=O)NCCC5CCCN5C)n4Cc4ccccc43)cc2C)c1 (centres unmarked) [Example 164]"
  V1a % inhibition @ 100 nM: "23%"
- Compound: "COc1cccc(-c2ccc(C(=O)N3Cc4ccc(C(=O)N5CCC[C@H]5CN5CCCC5)n4Cc4ccccc43)cc2OC)c1 [Example 270]"
  V1a % inhibition @ 100 nM: "40%"
- Compound: "COc1cc(C(=O)N2Cc3ccc(C(=O)N(C)CCCN(C)C)n3Cc3ccccc32)ccc1-n1c(C)ccc1C [Example 310]"
  V1a % inhibition @ 100 nM: "4%"
- Compound: "Cc1ccccc1-c1ccc(C(=O)N2Cc3ccc(C(=O)N4CC[C@@H](N(C)C)C4)n3Cc3ccccc32)cc1C [Example 274]"
  V1a % inhibition @ 100 nM: "90%"
- Compound: "O=C(c1ccc2n1Cc1ccccc1N(C(=O)c1ccc(-c3cccc4ccccc34)cc1Cl)C2)N1CCC(N2CCCCC2)CC1 [Example 121]"
  V1a % inhibition @ 100 nM: "0%"
- Compound: "COc1cccc(-c2ccc(C(=O)N3Cc4ccc(C(=O)N5CC[C@@H](N(C)C)C5)n4Cc4ccccc43)cc2OC)c1 [Example 283]"
  V1a % inhibition @ 100 nM: "40%"
- Compound: "COc1ccccc1-c1ccc(C(=O)N2Cc3ccc(C(=O)N4CCC(N5CCCC5)CC4)n3Cc3ccccc32)cc1OC [Example 145]"
  V1a % inhibition @ 100 nM: "−4%"
- Compound: "COc1cc(-c2ccccc2C)c(Cl)cc1C(=O)N1Cc2ccc(C(=O)N3CCC[C@H]3CN3CCCC3)n2Cc2ccccc21 [Example 267]"
  V1a % inhibition @ 100 nM: "12%"
- Compound: "COc1cc(C(=O)N2Cc3ccc(C(=O)N4CCC[C@H]4CN4CCCC4)n3Cc3ccccc32)ccc1-n1c(C)ccc1C [Example 321]"
  V1a % inhibition @ 100 nM: "5%"
- Compound: "Cc1ccccc1-c1ccc(C(=O)N2Cc3ccc(C(=O)N4CCC[C@H]4CN4CCCC4)n3Cc3ccccc32)cc1C [Example 260]"
  V1a % inhibition @ 100 nM: "55%"
- Compound: "O=C(c1ccc(-c2cccc3ccccc23)cc1Cl)N1Cc2ccc(C(=O)N3CCC[C@H]3CN3CCCC3)n2Cc2ccccc21 [Example 261]"
  V1a % inhibition @ 100 nM: "13%"
- Compound: "COc1cc(C(=O)N2Cc3ccc(C(=O)N4CC[C@@H](N(C)C)C4)n3Cc3ccccc32)ccc1-c1cccc2ccccc12 [Example 276]"
  V1a % inhibition @ 100 nM: "4%"
- Compound: "COc1cc(C(=O)N2Cc3ccc(C(=O)N4CCC[C@H]4CN4CCCC4)n3Cc3ccccc32)ccc1-c1cccc2ccccc12 [Example 262]"
  V1a % inhibition @ 100 nM: "8%"
- Compound: "COc1ccccc1-c1ccc(C(=O)N2Cc3ccc(C(=O)N4CCC[C@H]4CN4CCCC4)n3Cc3ccccc32)cc1C [Example 259]"
  V1a % inhibition @ 100 nM: "21%"
- Compound: "COc1ccccc1-c1ccc(C(=O)N2Cc3ccc(C(=O)N4CC[C@@H](N(C)C)C4)n3Cc3ccccc32)cc1 [Example 279]"
  V1a % inhibition @ 100 nM: "39%"
- Compound: "Cc1ccccc1-c1ccc(C(=O)N2Cc3ccc(C(=O)N4CCC[C@H]4CN4CCCC4)n3Cc3ccccc32)cc1 [Example 264]"
  V1a % inhibition @ 100 nM: "67%"

* * *

Target desc: human oxytocin receptor (Homo sapiens, UniProt P30559)
Construct: host or cells: CHO cells (pcDNA3.1 vector)
Sequence (P30559 whole entry): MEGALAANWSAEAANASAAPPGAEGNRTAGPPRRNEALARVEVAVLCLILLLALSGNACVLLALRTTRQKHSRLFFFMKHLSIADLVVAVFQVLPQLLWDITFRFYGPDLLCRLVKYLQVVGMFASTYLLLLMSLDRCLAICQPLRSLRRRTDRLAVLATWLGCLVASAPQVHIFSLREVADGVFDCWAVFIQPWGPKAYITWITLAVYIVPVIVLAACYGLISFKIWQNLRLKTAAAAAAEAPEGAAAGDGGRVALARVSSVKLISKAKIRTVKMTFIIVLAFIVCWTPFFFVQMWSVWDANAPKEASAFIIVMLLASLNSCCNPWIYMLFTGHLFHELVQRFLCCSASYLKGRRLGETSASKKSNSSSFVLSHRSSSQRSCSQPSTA
Experiment summary: Oxytocin binding in Chinese Hamster Ovary cell membranes expressing human oxytocin receptors
Protocol conditions: 100 nM, CHO cell membranes, [3H]oxytocin, values without parentheses, read-out: OT % inhibition @ 100% nM
Classify as follows. Reported inhibition at 0.1 µM greater than or equal to 70%: rule met. Reported inhibition at 0.1 µM below: rule not met.

- Compound: "COc1cc(C(=O)N2Cc3ccc(C(=O)NCCCn4ccnc4)n3Cc3ccccc32)ccc1-c1ccccc1C"
  Assigned category: "rule not met"
- Compound: "COc1cc(C(=O)N2Cc3ccc(C(=O)N(C)CCN(C)C)n3Cc3ccccc32)ccc1-c1ccccc1C"
  Assigned category: "rule met"
- Compound: "COc1cc(C(=O)N2Cc3ccc(C(=O)N4CCN(C)CC4)n3Cc3ccccc32)ccc1-c1ccccc1C"
  Assigned category: "rule met"
- Compound: "COc1ccccc1-c1ccc(C(=O)N2Cc3ccc(C(=O)N(C)CCN(C)C)n3Cc3ccccc32)cc1C"
  Assigned category: "rule met"
- Compound: "CN(C)CCCN(C)C(=O)c1ccc2n1Cc1ccccc1N(C(=O)c1ccc(-c3cccc4ccccc34)cc1Cl)C2"
  Assigned category: "rule not met"
- Compound: "COc1cccc(-c2cc(OC)c(C(=O)N3Cc4ccc(C(=O)N5CCN(CCN(C)C)CC5)n4Cc4ccccc43)cc2Cl)c1"
  Assigned category: "rule met"
- Compound: "COc1cccc(-c2ccc(C(=O)N3Cc4ccc(C(=O)NCCN5CCCCC5)n4Cc4ccccc43)cc2OC)c1"
  Assigned category: "rule not met"
- Compound: "O=C(c1ccc2n1Cc1ccccc1N(C(=O)c1ccc(-c3cccc4ccccc34)cc1Cl)C2)N1CCN(CCN2CCOCC2)CC1"
  Assigned category: "rule not met"
- Compound: "COc1ccccc1-c1ccc(C(=O)N2Cc3ccc(C(=O)N[C@@H](CCCCNC(=O)OC(C)(C)C)C(N)=O)n3Cc3ccccc32)cc1OC"
  Assigned category: "rule not met"
- Compound: "COc1cc(C(=O)N2Cc3ccc(C(=O)NCCCN(C)C)n3Cc3ccccc32)ccc1-c1cccc2ccccc12"
  Assigned category: "rule not met"
- Compound: "Cc1ccccc1-c1ccc(C(=O)N2Cc3ccc(C(=O)N4CCN(C)CC4)n3Cc3ccccc32)cc1C"
  Assigned category: "rule met"
- Compound: "COc1cc(-c2ccccc2C)c(Cl)cc1C(=O)N1Cc2ccc(C(=O)NCCN3CCCCC3)n2Cc2ccccc21"
  Assigned category: "rule not met"
- Compound: "COc1cccc(-c2ccc(C(=O)N3Cc4ccc(C(=O)N(C)C5CCN(C)C5)n4Cc4ccccc43)cc2C)c1 (centres unmarked)"
  Assigned category: "rule met"
